Recorded TGI for the following molecules
Tested on: IGROV1 ovarian
test-name: NCI tumour cell line growth inhibition, 48 h
parameter: TGI

[[record]]
molecule = "CCOC(=O)c1ccccc1SC(C[N+](=O)[O-])c1ccccc1 (stereo not given)"
assayed_target = "IGROV1 ovarian"
recorded_value = "15 µM"

[[record]]
molecule = "S=C(N/N=C(\\C(=N/NC(=S)N1CCCCC1)c1ccccn1)c1ccccn1)N1CCCCC1"
assayed_target = "IGROV1 ovarian"
recorded_value = "> 100 µM"

[[record]]
molecule = "COc1ccccc1NC(=O)C1=C(C)NC(C)=C(C(=O)Nc2ccccc2OC)C1c1cccc2ccccc12"
assayed_target = "IGROV1 ovarian"
recorded_value = "> 100 µM"

[[record]]
molecule = "COc1cc(/C(=C2/O[C@@H]([C@H]3COC(C)(C)O3)[C@H]3OC(C)(C)O[C@@H]23)c2ccc3c(c2)OCO3)cc(OC)c1OC"
assayed_target = "IGROV1 ovarian"
recorded_value = "> 25 µM"

[[record]]
molecule = "CC(=O)c1ccc2c3c1O[C@H]1c4[nH]c5ccccc5c4C[C@@]4(O)[C@@H](C2)N(CC2CC2)CC[C@]314"
assayed_target = "IGROV1 ovarian"
recorded_value = "30.1 µM"

[[record]]
molecule = "O=C1c2cccnc2-c2nccc3c2c1nc1ccc(Br)cc13"
assayed_target = "IGROV1 ovarian"
recorded_value = "0.143 µM"

[[record]]
molecule = "O=C(c1ccco1)c1nc2cc(C(F)(F)F)ccc2[n+]([O-])c1C(F)(F)F"
assayed_target = "IGROV1 ovarian"
recorded_value = "> 100 µM"

[[record]]
molecule = "CN(C(=O)C12C3C4C1C1C2C3C41C(O)C(C)(C)C)C(C)(C)C (stereo not given)"
assayed_target = "IGROV1 ovarian"
recorded_value = "> 100 µM"

[[record]]
molecule = "CC(C)(C)OC(=O)n1c(Cl)c(C=O)c2ccccc21"
assayed_target = "IGROV1 ovarian"
recorded_value = "> 100 µM"

[[record]]
molecule = "O=c1ccn(C2(CO)C=C(CO)C(O)C2O)c(=O)[nH]1 (stereo not given)"
assayed_target = "IGROV1 ovarian"
recorded_value = "> 25.7 µM"

[[record]]
molecule = "COc1cc(OC)c(F)c(COc2cnc(Nc3cnn(CCO)c3)nc2)c1F"
assayed_target = "IGROV1 ovarian"
recorded_value = "> 100 µM"

[[record]]
molecule = "O=C1CCC2(c3ccc(Cl)cc3)Nc3ncncc3N12 (stereo not given)"
assayed_target = "IGROV1 ovarian"
recorded_value = "> 10 µM"

[[record]]
molecule = "COc1cc(S(=O)(=O)Nc2ccc(-c3csc(N4C(=O)C(C)SC4c4ccccc4)n3)cc2)ccc1Cl (stereo not given)"
assayed_target = "IGROV1 ovarian"
recorded_value = "> 100 µM"

[[record]]
molecule = "O=Cc1c(Br)[nH]c2ccccc12"
assayed_target = "IGROV1 ovarian"
recorded_value = "> 100 µM"

[[record]]
molecule = "CCOC(=O)Cn1c(-c2nonc2NC(=O)c2ccccc2F)nc2ccccc21"
assayed_target = "IGROV1 ovarian"
recorded_value = "> 100 µM"

[[record]]
molecule = "C=C1CCC2C(C)(CO)C(O)CCC2(C)C1C/C=C1/CCOC1=O (stereo not given)"
assayed_target = "IGROV1 ovarian"
recorded_value = "> 100 µM"

[[record]]
molecule = "Cn1cnc(SC2=C3C(=O)C=C4S[C@H]5C[C@]42c2c(c(O)c4c6c2=[N+]3CCC=6C=N4)N5)c1CC(N)C(=O)O (stereo not given in full)"
assayed_target = "IGROV1 ovarian"
recorded_value = "30.2 µM"

[[record]]
molecule = "COc1ccc(/C=N\\NC(=O)c2ccc3nc(-c4ccc(Cl)cc4)[nH]c3c2)cc1"
assayed_target = "IGROV1 ovarian"
recorded_value = "3.97 µM"

[[record]]
molecule = "CC(C)=CC(=O)N[C@@H]1CC2CCC3C(CC[C@@]4(C)C3CC[C@@H]4C(C)N(C)C)[C@@]2(C)C[C@@H]1O (stereo not given in full)"
assayed_target = "IGROV1 ovarian"
recorded_value = "25.1 µM"

[[record]]
molecule = "CC1C(C#N)(C#N)C(C#N)=C(N)C1(C)[N+](=O)[O-] (stereo not given)"
assayed_target = "IGROV1 ovarian"
recorded_value = "> 100 µM"

